The reported measurements were obtained from patent US20160289321A1.

The entries below come with measured huIL-17A/F Bioassay (IC50, nM) values attached.
testedSystem: Recombinant human IL-17A/F (rhIL-17A/F), R&D System Cat No.5194-IL/CF (human, UniProt Q16552 20-155; Q96PD4 31-163, limits assumed)
Sequence (Q16552 20-155 limits assumed, chain 1 of 2): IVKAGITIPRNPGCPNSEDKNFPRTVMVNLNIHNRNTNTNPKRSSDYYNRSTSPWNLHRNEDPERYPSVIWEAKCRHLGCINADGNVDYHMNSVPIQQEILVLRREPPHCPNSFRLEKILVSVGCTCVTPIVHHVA
Sequence (Q96PD4 31-163 limits assumed, chain 2 of 2): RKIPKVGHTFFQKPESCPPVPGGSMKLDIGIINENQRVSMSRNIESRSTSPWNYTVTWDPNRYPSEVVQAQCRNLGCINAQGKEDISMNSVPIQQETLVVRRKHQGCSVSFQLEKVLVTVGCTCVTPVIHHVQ
test: cell-based or functional assay
Give a bare numeral; the unit nM is implied.

Example cases with answers are listed next.
{"binder": "Hu049-18 (antibody, V domains shown, Humanized mAb049) VH: EVQLVQSGAEVKKPGASVKVSCKASGYTFTDYEVHWVRQAPGQGLEWMGVIDPGTGGVAYNQKFEGRVTMTADTSTSTAYMELRSLRSDDTAVYYCTRYSLFYGSSPYAMDYWGQGTLVTVSS VL: EIVLTQSPDFQSVTPKEKVTITCSASSSVNYMHWFQQKPDQSPKLWIYRTSNLASGVPSRFSGSGSGTDYTLTINSLEAEDAATYYCQQRSSYPWTFGQGTKLEIKR", "readoutLabel": "huIL-17A/F Bioassay (IC50, nM)", "value": 0.684}
{"binder": "Hu049-20 (antibody, V domains shown) VH: EVQLVQSGAEVKKPGASVKVSCKASGYTFTDYEVHWVRQAPGQGLEWIGVIDPGTGGVAYNQKFEGRATLTADDSTNTAYMELRSLRSDDTAVYYCTRYSLFYGSSPYAMDYWGQGTLVTVSS VL: EIVLTQSPDFQSVTPKEKVTITCSASSSVNYMHWFQQKPDQSPKLWIYRTSNLASGVPSRFSGSGSGTDYTLTINSLEAEDAATYYCQQRSSYPWTFGQGTKLEIKR", "readoutLabel": "huIL-17A/F Bioassay (IC50, nM)", "value": 0.674}
{"binder": "Hu049-19 (antibody, V domains shown, Humanized mAb049) VH: EVQLVQSGAEVKKPGASVKVSCKASGYTFTDYEVHWVRQAPGQGLEWIGVIDPGTGGVAYNQKFEGRVTMTADTSTSTAYMELRSLRSDDTAVYYCTRYSLFYGSSPYAMDYWGQGTLVTVSS VL: EIVLTQSPDFQSVTPKEKVTITCSASSSVNYMHWFQQKPDQSPKLWIYRTSNLASGVPSRFSGSGSGTDYTLTINSLEAEDAATYYCQQRSSYPWTFGQGTKLEIKR", "readoutLabel": "huIL-17A/F Bioassay (IC50, nM)", "value": 0.411}

Below: the item to evaluate.
huIL-17A/F Bioassay (IC50, nM) recorded for this binder, Hu049-17 (antibody, V domains shown, Humanized mAb049) VH: EVQLVQSGAEVKKPGASVKVSCKASGYTFTDYEVHWVRQAPGQGLEWMGVIDPGTGGVAYNQKFEGRVTMTTDTSTSTAYMELRSLRSDDTAVYYCTRYSLFYGSSPYAMDYWGQGTLVTVSS VL: EIVLTQSPDFQSVTPKEKVTITCSASSSVNYMHWFQQKPDQSPKLWIYRTSNLASGVPSRFSGSGSGTDYTLTINSLEAEDAATYYCQQRSSYPWTFGQGTKLEIKR , is 0.406
